All values here come from patent US5789431A.

- Tested on: HCT-15
- Assay details: in vitro colon cancer cell growth inhibition (NCI screen)
Recorded measurements of cytotoxicity log GI50, one per entry
Please give a number only; it is taken to be in M.

Use these answered entries as a reference point.
[
  {
    "Sample smiles": "COc1cc(OC)cc(C(=O)NC2=C(Cl)C(=O)c3ccccc3C2=O)c1",
    "Output unit": "M",
    "cytotoxicity log GI50": -6.38
  },
  {
    "Sample smiles": "COc1ccc(C(=O)NC2=C(Cl)C(=O)c3ccccc3C2=O)cc1",
    "Output unit": "M",
    "cytotoxicity log GI50": -6.37
  },
  {
    "Sample smiles": "Cc1nc2c(n1CCCl)C(=O)c1ccccc1C2=O",
    "Output unit": "M",
    "cytotoxicity log GI50": -5.10
  },
  {
    "Sample smiles": "CCNC1=C(NC(=O)CC)C(=O)c2ccccc2C1=O",
    "Output unit": "M",
    "cytotoxicity log GI50": -4.19
  },
  {
    "Sample smiles": "Cc1nc2c(n1Cc1ccc(F)cc1)C(=O)c1ccccc1C2=O",
    "Output unit": "M",
    "cytotoxicity log GI50": -5.37
  }
]

Query :: Give the measured cytotoxicity log GI50 of CCC(CC)n1c(C)nc2c1C(=O)c1ccccc1C2=O .
Result :: -5.04

Query :: Give the measured cytotoxicity log GI50 of CC(=O)NC1=C(NCc2ccc(Cl)cc2)C(=O)c2ccccc2C1=O .
Result :: -5.25

Query :: Give the measured cytotoxicity log GI50 of COc1ccc(-n2c(CCCC(=O)O)nc3c2C(=O)c2ccccc2C3=O)cc1 .
Result :: -4.35

Query :: Give the measured cytotoxicity log GI50 of Cc1nc2c(n1CCC(C)C)C(=O)c1ccccc1C2=O .
Result :: -4.93

---

Recorded measurements of cytotoxicity log GI50, one per entry
- Tested on: UACC-62
- Assay details: in vitro melanoma cell growth inhibition (NCI screen)
Please give a number only; it is taken to be in M.

Use these answered entries as a reference point.
[
  {
    "Molecule": "Cc1nc2c(n1CCO)C(=O)c1ccccc1C2=O [Compound 16]",
    "Assayed system": "UACC-62",
    "Output unit": "M",
    "cytotoxicity log GI50": -4.78
  },
  {
    "Molecule": "CCC(c1ccc(F)cc1)c1nc2c(n1CC)C(=O)c1ccccc1C2=O (stereo not shown) [Compound 65]",
    "Assayed system": "UACC-62",
    "Output unit": "M",
    "cytotoxicity log GI50": -4.95
  },
  {
    "Molecule": "CCNC1=C(NC(=O)c2ccccc2)C(=O)c2ccccc2C1=O [Compound 47]",
    "Assayed system": "UACC-62",
    "Output unit": "M",
    "cytotoxicity log GI50": -4.70
  }
]

Query :: Give the measured cytotoxicity log GI50 of Cc1nc2c(n1C(C)(C)C)C(=O)c1ccccc1C2=O [Compound 8] .
Result :: -4.35

---

Recorded measurements of cytotoxicity log GI50, one per entry
- Test system: MOLT-4
- Assay details: in vitro leukemia cell growth inhibition (NCI screen)

Use these answered entries as a reference point.
[
  {
    "Compound": "CCCc1nc2c(n1CC)C(=O)c1ccccc1C2=O [Compound 24]",
    "cytotoxicity log GI50": "-4.77 M"
  },
  {
    "Compound": "Cc1nc2c(n1Cc1ccc(F)cc1)C(=O)c1ccccc1C2=O [Compound 19]",
    "cytotoxicity log GI50": "-5.27 M"
  },
  {
    "Compound": "Cc1ccc(Cn2c(C)nc3c2C(=O)c2ccccc2C3=O)cc1 [Compound 17]",
    "cytotoxicity log GI50": "-6.19 M"
  },
  {
    "Compound": "CCNC1=C(NC(=O)c2ccc(F)cc2)C(=O)c2ccccc2C1=O [Compound 48]",
    "cytotoxicity log GI50": "-4.52 M"
  },
  {
    "Compound": "Cc1nc2c(n1CCC(C)C)C(=O)c1ccccc1C2=O [Compound 11]",
    "cytotoxicity log GI50": "-5.08 M"
  }
]

Query :: Give the measured cytotoxicity log GI50 of CCC(C)n1c(C)nc2c1C(=O)c1ccccc1C2=O (centres unmarked) [Compound 6] .
Result :: -4.55 M

Query :: Give the measured cytotoxicity log GI50 of CCn1c(-c2ccccc2)nc2c1C(=O)c1ccccc1C2=O [Compound 25] .
Result :: -4.83 M

Query :: Give the measured cytotoxicity log GI50 of CCC(C)Cn1c(C)nc2c1C(=O)c1ccccc1C2=O (centres unmarked) [Compound 13] .
Result :: -5.54 M

Query :: Give the measured cytotoxicity log GI50 of Cc1nc2c(n1C(C)(C)C)C(=O)c1ccccc1C2=O [Compound 8] .
Result :: -4.31 M
